- tested_system: T1, 4H324-AA
- T1 chain: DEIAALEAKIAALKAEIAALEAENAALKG
- experiment_description: two-hybrid library CCmax;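 also: natural log of median RNA to DNA barcode read ratio; higher means stronger binding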
- setup_conditions: mean of both orientations
Cut-off -1 on interaction score, inclusive. At or above means T; below means F.

# example entries with known answers
> print(dat)
                                     binder  answer.label
1  DKIAALKAEIAALEAENAALEAENAALKG [4H2580-AA]             T
2  DKIAALKAENAALKAEIAALEAKNAALKG [4H2760-AA]             F
3  DKIAALKAEIAALEAKNAALKAKIAALEG [4H2621-AA]             T

Prompt: Determine whether this binder has interaction score no lower than -1: DKIAALKAENAALKAENAALEAKIAALKG [4H2774-AA]
Completion: F

Prompt: Determine whether this binder has interaction score no lower than -1: DKIAALKAKNAALKAKIAALKAEIAALEG [4H3049-AA]
Completion: T

# credit: paper PMC10397247
